Target: Recombinant STAT3 protein (STAT3 (G127-I722)) (Homo sapiens)
Construct: Recombinant STAT3 protein (STAT3 (G127-I722))
Assay: STAT3 Fluorescence Polarization (FP) Assay
Assay type: binding
Conditions: STAT3 (G127-I722) 25 nM, probe 5-FAM-GpYLPQTV-NH2 2 nM, 45-minute incubation; read-out: STAT3 (FP assay IC50 class)
Each item that follows carries a reported IC50.

- molecule: "O=C(N[C@H]1CCC[C@H]2CC[C@@H](C(=O)N3CC(c4ccccc4F)C3)N2C1=O)c1cc2cc(C(F)P(=O)(O)O)ccc2s1 (some centres unmarked) [Compound 565]"
  IC50: "100 to 1000 nM"

Fill in the recorded IC50 for this molecule, with Recombinant STAT3 protein (STAT3 (G127-I722)) (Homo sapiens) as test system: N#C[C@@H]1CN(C(=O)[C@@H]2CC[C@@H]3CCCC[C@H](NC(=O)c4cc5cc(C(F)P(=O)(O)O)ccc5s4)C(=O)N32)C[C@H]1c1ccccc1 (single isomer, unassigned) [Compound 225]
1000 to 10000 nM

And then O=C(N[C@H]1CCC[C@H]2CC[C@@H](C(=O)N3CC(n4cnccc4=O)C3)N2C1=O)c1cc2cc(C(F)P(=O)(O)O)ccc2s1 (some centres unmarked) [Compound 609] , what is it?
100 to 1000 nM

Also check CC(NC(=O)[C@@H]1CC[C@@H]2CCCC[C@H](NC(=O)c3cc4cc(C(F)(F)P(=O)(O)O)ccc4s3)C(=O)N21)c1c[nH]c2ncccc12 (some centres unmarked) [Compound 1113]
100 to 1000 nM

Then this molecule: O=C(N[C@H]1CCCC[C@H]2CC[C@@H](C(=O)N3C(=O)N(c4cccc5c4OC(F)(F)O5)C(=O)C34CC4)N2C1=O)c1cc2cc(C(F)P(=O)(O)O)ccc2s1 (some centres unmarked) [Compound 601]
1000 to 10000 nM

----------
Target: pY705-STAT3 in PBMC (Homo sapiens)
Construct: Cryopreserved Peripheral Blood Mononuclear Cells (PBMC) are from AllCells; host or cells: cryopreserved PBMC
Sequence (P40763 whole entry): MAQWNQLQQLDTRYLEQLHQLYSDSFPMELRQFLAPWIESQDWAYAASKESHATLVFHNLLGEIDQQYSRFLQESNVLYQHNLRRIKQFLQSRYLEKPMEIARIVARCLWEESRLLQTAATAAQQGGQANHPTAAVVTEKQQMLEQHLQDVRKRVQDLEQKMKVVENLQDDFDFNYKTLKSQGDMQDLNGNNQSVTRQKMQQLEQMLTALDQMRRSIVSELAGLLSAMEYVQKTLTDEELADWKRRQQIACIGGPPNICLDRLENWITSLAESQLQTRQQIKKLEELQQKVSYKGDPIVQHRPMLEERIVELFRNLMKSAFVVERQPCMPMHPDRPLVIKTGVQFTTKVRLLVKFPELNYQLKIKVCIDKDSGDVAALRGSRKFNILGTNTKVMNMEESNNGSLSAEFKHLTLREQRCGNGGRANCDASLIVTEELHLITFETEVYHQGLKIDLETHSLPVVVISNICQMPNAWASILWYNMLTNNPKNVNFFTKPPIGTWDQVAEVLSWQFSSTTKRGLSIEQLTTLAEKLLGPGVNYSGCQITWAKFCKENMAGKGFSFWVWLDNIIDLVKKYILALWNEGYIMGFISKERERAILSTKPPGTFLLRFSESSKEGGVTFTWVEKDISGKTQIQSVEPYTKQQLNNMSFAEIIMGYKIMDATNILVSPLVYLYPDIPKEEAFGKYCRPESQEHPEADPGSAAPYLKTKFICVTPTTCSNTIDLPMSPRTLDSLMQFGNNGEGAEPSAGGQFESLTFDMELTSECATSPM
Assay: MSD-pSTAT-PBMC Assay (pSTAT3, IL-6 stimulated)
Type: cell-based
Settings: PBMC, compound 3 hrs, then 10 ng/mL IL-6 for 10 min; Table 115; read-out: STAT3
pIC50: −log10 of the molar value.
Measured pIC50 values are reported for all entries that follow.

Solved entries:
- compound: "CCC(CC)COC(=O)[C@H](C)NP(=O)(Cc1ccc2ccc(C(=O)N[C@H]3CCCC[C@H]4CC[C@@H](C(=O)N5CC(c6ccccc6)CC56CC6)N4C3=O)cc2c1)Oc1ccccc1 (stereo partly drawn) [Compound 404]"
  pIC50: "< 5.52"
- compound: "CCCOC(=O)[C@H](C)NP(=O)(Cc1ccc2sc(C(=O)N[C@H]3CCC[C@H]4CC[C@@H](C(=O)N5CC(c6cncnc6N6CCC6)C5)N4C3=O)cc2c1)Oc1ccccc1 (stereo partly drawn) [Compound 1019]"
  pIC50: "> 7.00"
- compound: "CC(C)CC(=O)SCCOP(=O)(OCCSC(=O)CC(C)C)C(F)(F)c1ccc2sc(C(=O)N[C@H]3CCC[C@H]4CC[C@@H](C(=O)N5CC(c6ncccn6)C5)N4C3=O)cc2c1 [Compound 961]"
  pIC50: "> 7.00"
- compound: "CCCCOC(=O)[C@H](C)NP(=O)(Cc1ccc2sc(C(=O)N[C@H]3CCC[C@H]4CC[C@@H](C(=O)N5CC(c6cccnc6)C5)N4C3=O)cc2c1)N[C@@H](C)C(=O)OCCCC [Compound 420]"
  pIC50: "6.00 to 7.00"

Tell me reported pIC50 for CCCOC(=O)[C@H](C)NP(=O)(Cc1ccc2ccc(C(=O)N[C@H]3CCCC[C@H]4CC[C@@H](C(=O)N5C[C@@H](c6cc[nH]c(=O)c6)CC56CC6)N4C3=O)cc2c1)Oc1ccccc1 (stereo partly drawn) [Compound 409] , tested with pY705-STAT3 in PBMC (Homo sapiens).
< 5.52

Same thing, different compound: CCCCOC(=O)[C@H](C)NP(=O)(Cc1ccc2sc(C(=O)N[C@H]3CCC[C@H]4CC[C@@H](C(=O)N5CC(c6cccnc6)C5)N4C3=O)cc2c1)Oc1ccccc1 (stereo partly drawn) [Compound 279]
> 7.00

----------
Biological target: Recombinant STAT6 protein (STAT6 (W123-T658)) (Homo sapiens)
Construct: Recombinant STAT6 protein (STAT6 (W123-T658))
Sequence (P42226 123-658): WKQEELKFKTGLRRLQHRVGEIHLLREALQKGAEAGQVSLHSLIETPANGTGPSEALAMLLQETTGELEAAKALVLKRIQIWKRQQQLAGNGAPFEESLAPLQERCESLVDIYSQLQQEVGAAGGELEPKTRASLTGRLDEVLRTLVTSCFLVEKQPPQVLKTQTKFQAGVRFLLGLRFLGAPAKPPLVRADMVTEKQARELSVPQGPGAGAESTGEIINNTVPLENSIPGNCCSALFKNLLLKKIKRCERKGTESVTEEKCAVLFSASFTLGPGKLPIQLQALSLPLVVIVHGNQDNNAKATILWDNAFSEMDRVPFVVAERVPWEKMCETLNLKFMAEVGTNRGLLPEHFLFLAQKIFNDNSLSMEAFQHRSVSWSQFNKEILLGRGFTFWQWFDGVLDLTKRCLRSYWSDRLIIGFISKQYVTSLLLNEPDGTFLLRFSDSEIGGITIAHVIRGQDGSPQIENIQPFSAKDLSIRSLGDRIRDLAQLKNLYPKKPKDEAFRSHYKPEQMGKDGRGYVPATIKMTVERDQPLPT
Assay: STAT6 Fluorescence Polarization (FP) Assay
Type: binding
Conditions: STAT6 (W123-T658) 250 nM, probe 5-FAM-Ap[…]-NH2 2 nM, 45-minute incubation; read-out: STAT6 (FP assay IC50 class)
measured-endpoint: IC50

Need IC50, item CCc1ccncc1C1CN(C(=O)[C@@H]2CC[C@@H]3CCC[C@H](NC(=O)c4ccc5cc(CP(=O)(O)O)sc5c4)C(=O)N32)C1
3 to 30 µM

Okay, and O=C(N[C@H]1CCC[C@H]2CC[C@@H](C(=O)N3CC(c4ncc(C5CC5)cn4)C3)N2C1=O)c1cc2cc(C(F)(F)P(=O)(O)O)ccc2s1 ?
3 to 30 µM

Now give it for CC(c1cc[nH]c(=O)c1)N(C)C(=O)[C@@H]1CC[C@@H]2CCCC[C@H](NC(=O)c3cc4cc(C(F)(F)P(=O)(O)O)ccc4s3)C(=O)N21 (stereo partly drawn) too.
0.3 to 3 µM

----------
Molecular target: pY641-STAT6 in PBMC (Homo sapiens)
Construct: Cryopreserved Peripheral Blood Mononuclear Cells (PBMC) are from AllCells; host or cells: cryopreserved PBMC
Sequence (P42226 whole entry): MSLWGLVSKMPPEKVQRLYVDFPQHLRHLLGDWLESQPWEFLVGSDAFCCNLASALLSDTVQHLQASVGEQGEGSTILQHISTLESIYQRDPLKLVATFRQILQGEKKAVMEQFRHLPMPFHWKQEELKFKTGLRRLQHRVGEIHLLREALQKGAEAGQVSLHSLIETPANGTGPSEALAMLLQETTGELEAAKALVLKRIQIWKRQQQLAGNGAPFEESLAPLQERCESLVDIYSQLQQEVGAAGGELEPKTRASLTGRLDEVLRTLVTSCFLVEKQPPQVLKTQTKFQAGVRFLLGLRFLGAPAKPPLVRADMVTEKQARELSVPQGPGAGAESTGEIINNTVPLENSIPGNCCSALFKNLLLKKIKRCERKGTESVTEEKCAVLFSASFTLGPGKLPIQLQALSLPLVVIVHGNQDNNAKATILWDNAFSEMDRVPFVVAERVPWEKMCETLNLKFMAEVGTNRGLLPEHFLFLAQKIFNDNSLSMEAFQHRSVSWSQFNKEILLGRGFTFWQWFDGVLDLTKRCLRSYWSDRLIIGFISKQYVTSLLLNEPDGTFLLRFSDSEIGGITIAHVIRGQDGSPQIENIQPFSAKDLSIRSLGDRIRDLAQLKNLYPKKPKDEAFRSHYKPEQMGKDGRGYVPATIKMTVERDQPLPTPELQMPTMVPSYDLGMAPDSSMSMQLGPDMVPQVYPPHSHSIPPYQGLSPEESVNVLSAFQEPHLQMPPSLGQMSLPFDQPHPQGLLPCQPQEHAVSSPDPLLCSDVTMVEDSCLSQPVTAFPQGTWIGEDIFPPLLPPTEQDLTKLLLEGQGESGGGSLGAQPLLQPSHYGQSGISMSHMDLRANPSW
Assay: MSD-pSTAT-PBMC Assay (pSTAT6, IL-4 stimulated)
Format: cell-based
Settings: PBMC, compound 3 hrs, then 1 ng/mL IL-4 for 10 min; Table 1114; read-out: pSTAT6
pIC50: −log10 of the molar value.
measured-endpoint: pIC50

- compound: "CC(C)(C)C(=O)OCOP(=O)(Cc1ccc2sc(C(=O)N[C@H]3CCCC[C@H]4CC[C@@H](C(=O)N5C[C@@H](C#N)[C@H](c6ccccc6)C5)N4C3=O)cc2c1)OCOC(=O)C(C)(C)C (single isomer, unassigned)"
  result: "6.00 to 7.00"

Look at this compound and give its reported pIC50. CC(C)CC(=O)SCCOP(=O)(OCCSC(=O)CC(C)C)C(F)(F)c1ccc2ccc(C(=O)N[C@H]3CCCC[C@H]4CC[C@@H](C(=O)N5CCC(c6cc[nH]c(=O)c6)C5)N4C3=O)cc2c1 (stereo partly drawn)
> 7.00

// same read-out, input: CC(C)(C)C(=O)OCOP(=O)(OCOC(=O)C(C)(C)C)C(F)(F)c1ccc2sc(C(=O)N[C@H]3CCCCC4CC[C@@H](C(=O)N5C[C@H](C6CCCCC6)[C@@H](C#N)C5)N4C3=O)cc2c1 (relative stereo)
> 7.00

Entry to check: CCCC(=O)SCCOP(=O)(OCCSC(=O)CCC)C(F)(F)c1ccc2sc(C(=O)N[C@H]3CCCC[C@H]4CC[C@@H](C(=O)N5C[C@@H](C#N)[C@H](c6ccccc6)C5)N4C3=O)cc2c1 (relative stereo) [Compound 126]
> 7.00

Now give it for CC(C)(CO)C(=O)SCCOP(=O)(OCCSC(=O)C(C)(C)CO)C(F)(F)c1ccc2sc(C(=O)N[C@H]3CCCC[C@H]4CC[C@@H](C(=O)N5C[C@@H](C#N)[C@H](c6ccccc6)C5)N4C3=O)cc2c1 (single isomer, unassigned) too.
< 5.52

Repeat with CC(C)(C)C(=O)OCOP(=O)(OCOC(=O)C(C)(C)C)C(F)(F)c1ccc2sc(C(=O)N[C@@]3(C)CCCC[C@H]4CC[C@@H](C(=O)N5CC(c6ccccn6)C5)N4C3=O)cc2c1
< 5.52

----------
pIC50 by entry:
Target: pY641-STAT6 in PBMC (Homo sapiens)
Construct: Cryopreserved Peripheral Blood Mononuclear Cells (PBMC) are from AllCells; host or cells: cryopreserved PBMC
Experiment: MSD-pSTAT-PBMC Assay (pSTAT6, IL-4 stimulated)
Format: cell-based
Details: STAT6, PBMC, compound 3 hrs, then 1 ng/mL IL-4 for 10 min; Table 115
pIC50: −log10 of the molar value.

Reference set, count: 2
- compound: "CCCOC(=O)[C@H](C)NP(=O)(Oc1ccccc1)C(C)(F)c1ccc2sc(C(=O)N[C@H]3CCCC[C@H]4CC[C@@H](C(=O)N5CCC(c6cccnc6)C5)N4C3=O)cc2c1 (stereo partly drawn) [Compound 314]"
  pIC50: "< 5.52"
- compound: "CCCOC(=O)[C@H](C)NP(=O)(Oc1ccccc1)C(F)c1ccc2sc(C(=O)N[C@H]3CCCC[C@H]4CC[C@@H](C(=O)N5C[C@@H](c6cccc(OC)c6)[C@H](C#N)C56CC6)N4C3=O)cc2c1 (single isomer, unassigned) [Compound 326]"
  pIC50: "> 7.00"

If you can, please state the reported pIC50 value of CCCOC(=O)[C@H](C)NP(=O)(Oc1ccccc1)[C@H](F)c1ccc2sc(C(=O)N[C@H]3CCCC[C@H]4CC[C@@H](C(=O)N5CC(c6cccnc6)CC56CC6)N4C3=O)cc2c1 (stereo in doubt) [Compound 458] .
> 7.00
